- system: UniProt:P08913
- Sequence (P08913 whole entry): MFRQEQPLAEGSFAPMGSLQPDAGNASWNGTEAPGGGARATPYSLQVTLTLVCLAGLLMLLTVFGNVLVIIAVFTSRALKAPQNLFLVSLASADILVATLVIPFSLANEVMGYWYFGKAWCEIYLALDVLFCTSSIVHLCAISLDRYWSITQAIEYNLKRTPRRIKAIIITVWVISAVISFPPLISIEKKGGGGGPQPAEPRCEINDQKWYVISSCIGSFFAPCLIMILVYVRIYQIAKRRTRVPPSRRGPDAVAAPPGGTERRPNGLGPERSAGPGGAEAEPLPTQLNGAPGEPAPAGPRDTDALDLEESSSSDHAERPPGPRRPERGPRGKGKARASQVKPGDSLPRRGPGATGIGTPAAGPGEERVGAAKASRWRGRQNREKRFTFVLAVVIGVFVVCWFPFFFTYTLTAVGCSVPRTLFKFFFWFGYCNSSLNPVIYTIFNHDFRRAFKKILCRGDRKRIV
// reported Ki per item
Number in nM, nothing else.

Illustrative cases are given below, each with its answer.
molecule=c1ccc2oc(C3=NCCN3)cc2c1 recordedendpoint=Ki readoutvalue=26900
molecule=c1ccc(OCC2=NCCN2)c(CC2CC2)c1 recordedendpoint=Ki readoutvalue=77.6
molecule=c1ccc(OC2CC2)c(OCC2=NCCN2)c1 recordedendpoint=Ki readoutvalue=316
molecule=C=CCc1ccccc1OCC1=NCCN1 recordedendpoint=Ki readoutvalue=126
molecule="CCCc1ccccc1OC(C)C1=NCCN1 (configuration not stated)" recordedendpoint=Ki readoutvalue=50.1

Prompt line: Specify Ki for Brc1ccccc1OCC1=NCCN1 and stop.
Response line: 95.5

Prompt line: Specify Ki for CCCc1ccccc1OCC1=NCCN1 and stop.
Response line: 49

###

// reported Intrinsic activity per item
- system: 5-hydroxytryptamine receptor 1A (Homo sapiens) (UniProt P08908)
- Sequence (P08908 whole entry): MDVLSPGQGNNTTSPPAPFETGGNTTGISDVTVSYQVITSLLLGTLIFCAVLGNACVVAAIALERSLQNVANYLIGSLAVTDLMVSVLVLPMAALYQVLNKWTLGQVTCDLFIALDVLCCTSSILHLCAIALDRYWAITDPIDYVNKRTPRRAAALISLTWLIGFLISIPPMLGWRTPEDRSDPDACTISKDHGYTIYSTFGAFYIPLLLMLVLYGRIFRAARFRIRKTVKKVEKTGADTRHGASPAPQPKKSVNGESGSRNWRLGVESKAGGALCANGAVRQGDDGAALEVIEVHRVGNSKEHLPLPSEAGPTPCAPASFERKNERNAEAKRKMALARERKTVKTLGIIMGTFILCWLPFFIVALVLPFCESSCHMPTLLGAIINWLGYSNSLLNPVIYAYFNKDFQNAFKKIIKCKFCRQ
- assayExplanation: Agonist activity at human 5HT1A receptor assessed as intrinsic activity
Give the figure only, with no unit attached.

linenotation=C=CCc1ccccc1OCC1=NCCN1 recordedendpoint="Intrinsic activity" readoutvalue=0.73

In the following, a different compound is considered.
Prompt line: Specify Intrinsic activity for c1ccc(OC2CC2)c(OCC2=NCCN2)c1 and stop.
Response line: 1

###

// reported EC50 per item
- system: Alpha-2C adrenergic receptor (Homo sapiens)
- Sequence (P18825 whole entry): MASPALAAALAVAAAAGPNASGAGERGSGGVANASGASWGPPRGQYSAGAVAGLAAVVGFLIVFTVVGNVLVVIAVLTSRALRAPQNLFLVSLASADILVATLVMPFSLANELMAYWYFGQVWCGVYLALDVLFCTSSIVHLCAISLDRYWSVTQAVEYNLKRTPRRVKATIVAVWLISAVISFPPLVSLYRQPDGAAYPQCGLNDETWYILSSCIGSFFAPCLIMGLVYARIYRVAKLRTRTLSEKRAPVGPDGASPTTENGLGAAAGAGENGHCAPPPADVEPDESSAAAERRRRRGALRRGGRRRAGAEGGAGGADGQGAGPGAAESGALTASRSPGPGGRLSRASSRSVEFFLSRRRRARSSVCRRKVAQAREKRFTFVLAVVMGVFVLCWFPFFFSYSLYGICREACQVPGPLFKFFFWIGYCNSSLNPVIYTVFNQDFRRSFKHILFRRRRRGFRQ
- assayExplanation: Agonist activity at human alpha2C AR
Number in nM, nothing else.

compound=Brc1ccccc1OCC1=NCCN1 system="Alpha-2C adrenergic receptor (Homo sapiens)" recordedendpoint=EC50 readoutvalue=97.7
compound=c1ccc(OCC2=NCCN2)c(CC2CC2)c1 system="Alpha-2C adrenergic receptor (Homo sapiens)" recordedendpoint=EC50 readoutvalue=234
compound=c1ccc(OC2CC2)c(OCC2=NCCN2)c1 system="Alpha-2C adrenergic receptor (Homo sapiens)" recordedendpoint=EC50 readoutvalue=1000
compound="CCCc1ccccc1OC(C)C1=NCCN1 (stereo unspecified)" system="Alpha-2C adrenergic receptor (Homo sapiens)" recordedendpoint=EC50 readoutvalue=25.1

Prompt line: Provide EC50, tested on Alpha-2C adrenergic receptor (Homo sapiens), for CCCc1ccccc1OCC1=NCCN1 .
Response line: 155

Prompt line: Provide EC50, tested on Alpha-2C adrenergic receptor (Homo sapiens), for C=CCc1ccccc1OCC1=NCCN1 .
Response line: 61.7

###

- System: Mus musculus
- assayExplanation: Antidepressant-like activity in mouse assessed as reduction in immobility time at 0.05 mg/kg, ip by forced swimming test
- Format: functional, organism-based
- Design: dose 0.05 mg/kg
Activity calls are given as the source filed them. No cut-off for these calls is given here.
Hello, when you answer, please use one of the following outcomes: active, inactive

Field: example entries. Status: answers known.
compound="C=CCc1ccccc1OC(C)C1=NCCN1 (centres undefined) [ALLYPHENYLINE]" classassignment=active
compound="CC(Oc1ccccc1CC1CC1)C1=NCCN1 (centres undefined) [CYCLOMETHYLINE]" classassignment=active
compound=C=CCc1ccccc1OCC1=NCCN1 classassignment=inactive

Consider now this further compound.
Prompt line: For CC(Oc1ccccc1C1CC1)C1=NCCN1 (centres undefined) , which call appears in the assay record?
Response line: active

###

- system: 5-hydroxytryptamine receptor 1A (Homo sapiens) (UniProt P08908)
- assayExplanation: Agonist activity at human 5HT1A receptor assessed as intrinsic activity
recordedEndpoint: Intrinsic activity
Give the figure only, with no unit attached.

Illustrative cases are given below, each with its answer.
molecule=Brc1ccccc1OCC1=NCCN1 readoutvalue=0.88
molecule=CCCc1ccccc1OCC1=NCCN1 readoutvalue=0.9
molecule="c1ccc(C2CC2)c(OCC2=NCCN2)c1 [CIRAZOLINE]" readoutvalue=0.8

Prompt line: Specify Intrinsic activity for c1ccc(OCC2=NCCN2)c(CC2CC2)c1 and stop.
Response line: 0.8
